System: LNcap
Experiment: CCK-8 tumor cell proliferation, LNcap
Type: cell-based, Human
Details: 96 h, read-out: IC50 for inhibiting the proliferation of tumor cells, LNcap
Experimental: Determination of half inhibitory concentration (IC50) of the compounds against tumor cells: The tumor cells used herein were cultured in a cell culture medium listed in table 6 at 37° C. in an incubator with 5% CO2. Prior to experimentation, all cells used were correctly identified by STR profiling, and tested negative for mycoplasma through routine screenings. […]
pIC50: −log10 of the molar value.

Molecule	pIC50
N#Cc1ccc(OC2CCC(NC(=O)c3ccc(N4CCC(CN5C6CCC5CN(c5ccc7c(c5)C(=O)N(C5CCC(=O)NC5=O)C7=O)C6)CC4)nn3)CC2)cc1Cl (stereo not drawn)	6.30 to 7.00
N#Cc1ccc(OC2CCC(NC(=O)c3ccc(N4CCC(CN5C6CC5CN(c5ccc7c(c5)C(=O)N(C5CCC(=O)NC5=O)C7=O)C6)CC4)nn3)CC2)cc1Cl (stereo not drawn)	6.30 to 7.00
N#Cc1ccc(OC2CCC(NC(=O)c3ccc(N4CCC(CN5CCN(c6cc7c(cc6F)C(=O)N(C6CCC(=O)NC6=O)C7=O)CC5)CC4)nn3)CC2)cc1Cl (stereo not drawn)	6.00 to 6.30
N#Cc1ccc(OC2CCC(NC(=O)c3ccc(N4CCC(CN5CC6CCC(C5)N6c5cc6c(cc5F)C(=O)N(C5CCC(=O)NC5=O)C6=O)CC4)nn3)CC2)cc1Cl (stereo not drawn)	≥ 7.30
N#Cc1ccc(OC2CCC(NC(=O)c3ccc(N4CCC(CN5CC6CC(C5)N6c5cc6c(cc5F)C(=O)N(C5CCC(=O)NC5=O)C6=O)CC4)nn3)CC2)cc1Cl (stereo not drawn)	6.30 to 7.00
N#Cc1ccc(OC2CCC(NC(=O)c3ccc(N4C5CC4CN(CC4CCN(c6cc7c(cc6F)C(=O)N(C6CCC(=O)NC6=O)C7=O)CC4)C5)nn3)CC2)cc1Cl (stereo not drawn)	6.30 to 7.00

###

System: WSU-DLCL2
Test: CCK-8 tumor cell proliferation, WSU-DLCL2
Type: cell-based, Human
Conditions: WSU-DLCL2, 96 h, read-out: IC50 for inhibiting the proliferation of tumor cells, WSU-DLCL2
Protocol: Determination of half inhibitory concentration (IC50) of the compounds against tumor cells: The tumor cells used herein were cultured in a cell culture medium listed in table 6 at 37° C. in an incubator with 5% CO2. […]
pIC50: −log10 of the molar value.
Metric name: pIC50

Compound	Metric name	Test value
N#Cc1ccc(OC2CCC(NC(=O)c3ccc(N4CCC(CN5CC6CC(C5)N6c5cc6c(cc5F)C(=O)N(C5CCC(=O)NC5=O)C6=O)CC4)nn3)CC2)cc1Cl (stereo not drawn) [GT-03486]	pIC50	6.30 to 7.00
N#Cc1ccc(OC2CCC(NC(=O)c3ccc(N4CCC(CN5C6CCC5CN(c5ccc7c(c5)C(=O)N(C5CCC(=O)NC5=O)C7=O)C6)CC4)nn3)CC2)cc1Cl (stereo not drawn) [GT-03489]	pIC50	6.30 to 7.00
N#Cc1ccc(OC2CCC(NC(=O)c3ccc(N4CCC(CN5CCN(c6cc7c(cc6F)C(=O)N(C6CCC(=O)NC6=O)C7=O)CC5)CC4)nn3)CC2)cc1Cl (stereo not drawn) [GT-03016]	pIC50	5.30 to 6.00
N#Cc1ccc(OC2CCC(NC(=O)c3ccc(N4CCC(CN5CC6CC(C5)N6c5ccc6c(c5)C(=O)N(C5CCC(=O)NC5=O)C6=O)CC4)nn3)CC2)cc1Cl (stereo not drawn) [GT-03339]	pIC50	6.30 to 7.00
N#Cc1ccc(OC2CCC(NC(=O)c3ccc(N4CC5CCC(C4)N5CC4CCN(c5cc6c(cc5F)C(=O)N(C5CCC(=O)NC5=O)C6=O)CC4)nn3)CC2)cc1Cl (stereo not drawn) [GT-03450]	pIC50	6.00 to 6.30
N#Cc1ccc(OC2CCC(NC(=O)c3ccc(N4CCC(CN5C6CC5CN(c5ccc7c(c5)C(=O)N(C5CCC(=O)NC5=O)C7=O)C6)CC4)nn3)CC2)cc1Cl (stereo not drawn) [GT-03490]	pIC50	6.30 to 7.00

###

The following compounds are listed with their measured pIC50 values.
Test system: SU-DHL-6
Test: CCK-8 tumor cell proliferation, SU-DHL-6
Assay type: cell-based
Settings: Homo sapiens, SU-DHL-6, 72 h, read-out: IC50 for inhibiting the proliferation of tumor cells, SU-DHL-6
pIC50: −log10 of the molar value.

Compound	pIC50
Cc1nc(Nc2ncc(C(=O)Nc3c(C)cccc3Cl)s2)cc(N2CCC(CN3CC4CCC(C3)N4c3cc4c(cc3F)C(=O)N(C3CCC(=O)NC3=O)C4=O)CC2)n1 (centres unmarked)	6.30 to 7.00
Cc1nc(Nc2ncc(C(=O)Nc3c(C)cccc3Cl)s2)cc(N2CCC(CN3C4CC3CN(c3cc5c(cc3F)C(=O)N(C3CCC(=O)NC3=O)C5=O)C4)CC2)n1 (centres unmarked)	≥ 7.30
Cc1nc(Nc2ncc(C(=O)Nc3c(C)cccc3Cl)s2)cc(N2CCN(CCO)CC2)n1 [Dasatinib, reference compound]	≥ 7.30
Cc1nc(Nc2ncc(C(=O)Nc3c(C)cccc3Cl)s2)cc(N2CCC(CN3CC4CC(C3)N4c3ccc4c(c3)C(=O)N(C3CCC(=O)NC3=O)C4=O)CC2)n1 (centres unmarked)	6.30 to 7.00
Cc1nc(Nc2ncc(C(=O)Nc3c(C)cccc3Cl)s2)cc(N2CCC(CN3C4CCC3CN(c3ccc5c(c3)C(=O)N(C3CCC(=O)NC3=O)C5=O)C4)CC2)n1 (centres unmarked)	≥ 7.30
Cc1nc(Nc2ncc(C(=O)Nc3c(C)cccc3Cl)s2)cc(N2CCC(CN3C4CCC3CN(c3cc5c(cc3F)C(=O)N(C3CCC(=O)NC3=O)C5=O)C4)CC2)n1 (centres unmarked)	≥ 7.30
Cc1nc(Nc2ncc(C(=O)Nc3c(C)cccc3Cl)s2)cc(N2CCC(CN3CC4CCC(C3)N4c3ccc4c(c3)C(=O)N(C3CCC(=O)NC3=O)C4=O)CC2)n1 (centres unmarked)	6.30 to 7.00
Cc1nc(Nc2ncc(C(=O)Nc3c(C)cccc3Cl)s2)cc(N2CCC(CN3C4CC3CN(c3ccc5c(c3)C(=O)N(C3CCC(=O)NC3=O)C5=O)C4)CC2)n1 (centres unmarked)	≥ 7.30

###

Tested on: SW620
Experiment: CCK-8 tumor cell proliferation, SW620
Assay type: cell-based, Human
Conditions: Homo sapiens, SW-620; SW620, 96 h, CCK-8, Table 9 (CDK4/6-based); read-out: IC50 for inhibiting the proliferation of tumor cells, SW620
Metric name: IC50

Molecule	Metric name	Test value
CN(C)C(=O)c1cc2cnc(Nc3ccc(N4CCC(CN5CC6CCC(C5)N6c5ccc6c(c5)C(=O)N(C5CCC(=O)NC5=O)C6=O)CC4)cn3)nc2n1C1CCCC1 (stereo not shown)	IC50	100 to 500 nM

###

Tested on: A549
Experiment: CCK-8 tumor cell proliferation, A549
Format: cell-based, Human
Conditions: A549, 96 h, read-out: IC50 for inhibiting the proliferation of tumor cells, A549
pIC50: −log10 of the molar value.
Reported pIC50 values follow for various compounds

Compound	pIC50
N#Cc1ccc(OC2CCC(NC(=O)c3ccc(N4CCC(CN5CC6CCC(C5)N6c5ccc6c(c5)C(=O)N(C5CCC(=O)NC5=O)C6=O)CC4)nn3)CC2)cc1Cl (stereo not drawn)	7.00 to 7.30
N#Cc1ccc(OC2CCC(NC(=O)c3ccc(N4CCC(CN5CC6CCC(C5)N6c5cc6c(cc5F)C(=O)N(C5CCC(=O)NC5=O)C6=O)CC4)nn3)CC2)cc1Cl (stereo not drawn)	≥ 7.30
N#Cc1ccc(OC2CCC(NC(=O)c3ccc(N4CCC(CN5CC6CC(C5)N6c5cc6c(cc5F)C(=O)N(C5CCC(=O)NC5=O)C6=O)CC4)nn3)CC2)cc1Cl (stereo not drawn)	6.30 to 7.00

###

Biological target: human Cereblon WT GST-tagged protein (Homo sapiens (Human), UniProt Q96SW2)
Sequence (Q96SW2 whole entry): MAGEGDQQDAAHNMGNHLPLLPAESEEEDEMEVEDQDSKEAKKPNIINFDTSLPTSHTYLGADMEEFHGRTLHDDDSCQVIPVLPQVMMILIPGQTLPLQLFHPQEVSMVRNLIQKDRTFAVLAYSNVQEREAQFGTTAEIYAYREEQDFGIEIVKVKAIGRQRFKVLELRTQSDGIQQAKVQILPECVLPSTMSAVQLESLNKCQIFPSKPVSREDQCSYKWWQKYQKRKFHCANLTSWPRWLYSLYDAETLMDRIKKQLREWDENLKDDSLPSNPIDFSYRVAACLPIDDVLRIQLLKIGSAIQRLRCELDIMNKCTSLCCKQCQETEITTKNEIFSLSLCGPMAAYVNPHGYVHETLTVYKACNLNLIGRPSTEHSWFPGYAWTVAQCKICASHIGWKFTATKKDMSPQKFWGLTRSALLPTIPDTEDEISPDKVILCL
pIC50: −log10 of the molar value.
Metric name: pIC50

Compound	Test value
O=C1CCC(N2C(=O)c3ccc(N4C5CCC4CNC5)cc3C2=O)C(=O)N1 (stereo not drawn) [GT-03210]	5.57
O=C1CCC(N2C(=O)c3cc(F)c(N4CC5CC(C4)N5)cc3C2=O)C(=O)N1 (stereo not drawn) [GT-03109]	5.45
O=C1CCC(N2C(=O)c3cc(F)c(N4C5CNCC4C5)cc3C2=O)C(=O)N1 (stereo not drawn) [GT-03106]	5.39
O=C1CCC(N2C(=O)c3cc(F)c(N4C5CCC4CNC5)cc3C2=O)C(=O)N1 (stereo not drawn) [GT-03211]	5.01
O=C1CCC(N2C(=O)c3ccc(N4C5CNCC4C5)cc3C2=O)C(=O)N1 (stereo not drawn) [GT-03100]	5.01
O=C1CCC(N2C(=O)c3ccc(N4CC5CC(C4)N5)cc3C2=O)C(=O)N1 (stereo not drawn) [GT-03075]	5.29
O=C1CCC(N2C(=O)c3ccc(N4CC5CCC(C4)N5)cc3C2=O)C(=O)N1 (stereo not drawn) [GT-03077]	5.28
[2H]C1([2H])NC([2H])([2H])C([2H])([2H])N(c2cc3c(cc2F)C(=O)N(C2CCC(=O)NC2=O)C3=O)C1([2H])[2H] (stereo not drawn) [GT-03108]	5.06
O=C1CCC(N2C(=O)c3ccc(N4CC5CCC4CN5)cc3C2=O)C(=O)N1 (stereo not drawn) [GT-03076]	6.19
